procedure_text: Inhibition of beta-lactamase OXA48 (unknown origin) using nitrocefin substrate by enzymatic turnover assay
Parameter pIC50: see the listing below.
# log scale: pIC50 equals minus log10 of the concentration in mol/L

For orientation, consider the following solved cases.
[[record]]
compound = "CC(C)(C)C1=C(C(=O)[O-])N2C(=O)/C(=C\\c3ccoc3)C2O1.[Na+] (stereo not given)"
measure = "pIC50"
value_reported = 6.00

[[record]]
compound = "COc1ccccc1/C=C1/C(=O)N2C(C(=O)[O-])=C(C(C)(C)C)OC12.[Na+] (stereo not given)"
measure = "pIC50"
value_reported = 6.80

[[record]]
compound = "CC(C)(C)C1=C(C(=O)[O-])N2C(=O)/C(=C/c3ccccc3)C2O1.[Na+] (stereo not given)"
measure = "pIC50"
value_reported = 6.59

[[record]]
compound = "CC(C)(C)C1=C(C(=O)[O-])N2C(=O)CC2O1.[Na+] (stereo not given)"
measure = "pIC50"
value_reported = 7.12


Problem: Item COc1cccc(/C=C2/C(=O)N3C(C(=O)[O-])=C(C(C)(C)C)OC23)c1.[Na+] (stereo not given) has what recorded pIC50?
Solution: 6.64
